All values here come from patent US20240158391A1.

# target-entity: CDK4/CyclinD1 (Homo sapiens, UniProt P11802)
# Sequence (P11802 whole entry, species assumed): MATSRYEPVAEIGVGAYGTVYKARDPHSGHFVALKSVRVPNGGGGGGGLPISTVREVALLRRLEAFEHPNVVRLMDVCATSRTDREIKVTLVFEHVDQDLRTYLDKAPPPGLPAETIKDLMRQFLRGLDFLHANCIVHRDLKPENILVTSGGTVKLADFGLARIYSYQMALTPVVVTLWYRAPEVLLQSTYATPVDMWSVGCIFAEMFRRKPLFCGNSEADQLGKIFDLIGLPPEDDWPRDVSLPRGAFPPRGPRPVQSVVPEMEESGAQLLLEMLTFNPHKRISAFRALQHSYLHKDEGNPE
# Sequence (P24385 whole entry partner, species assumed): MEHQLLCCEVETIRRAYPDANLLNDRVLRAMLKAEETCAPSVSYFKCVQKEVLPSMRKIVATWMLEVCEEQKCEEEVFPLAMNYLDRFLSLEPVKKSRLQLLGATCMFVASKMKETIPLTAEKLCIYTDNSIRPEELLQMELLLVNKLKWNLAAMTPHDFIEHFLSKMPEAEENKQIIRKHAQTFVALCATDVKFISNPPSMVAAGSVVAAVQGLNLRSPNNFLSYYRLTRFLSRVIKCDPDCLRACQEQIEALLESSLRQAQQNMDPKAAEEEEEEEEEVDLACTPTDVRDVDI
# protocol-description: ADP Glo kinase assay, CDK4/CyclinD1
# condition-set: Km ATP, read-out: Enzymatic inhibition, Ki, CDK4 D1
Entries and their pKi
Note: pKi values are expressed as the negative base-10 logarithm of concentration in M.

# annotated cases, reported pKi shown
CN1CCN(c2ccc(Nc3nccc(-c4cnc5ccc(Br)cn45)n3)cn2)CC1 : 6.15
CN1CCN(c2ccc(Nc3nccc(-c4cnc5ccc(F)cn45)n3)cn2)CC1 : 6.42
CN1CCN(c2ccc(Nc3nccc(-c4cnc5ccccn45)n3)cn2)CC1 : 8.10

Kindly consider the entry below.
Q. Look up and report measured pKi for this entry: "Cc1nc2ccc(F)cn2c1-c1ccnc(Nc2ccc(N3CCN(C)CC3)nc2)n1"
A. 7.26
